assay: HL-60 cell growth and viability; format: cell-based, human; conditions: human, hl-60 cells, 8 nM PMA, 0 μM sphinganine, 24 h; read-out: Percent viability of suspended cells

Compound	viability at 24 h, 0.008 µM, %
CCCCCCCCCCCCCC(=O)O[C@@H]1[C@@H](C)[C@@]2(O)[C@@H](C=C(CO)C[C@]3(O)C(=O)C(C)=C[C@@H]23)[C@@H]2C(C)(C)[C@]12OC(C)=O [PMA, Phorbol 12-myristate 13-acetate, reference compound]	60

###

test system: HL-60 cells; test: Dioctanoylglycerol-induced attachment of HL-60 cells; format: cell-based; conditions: Homo sapiens, 100 μM dioctanoylglycerol, maintenance doses 20 μM every 2 h, read-out: concentration reducing dioctanoylglycerol-induced adherence by 50%
pIC50: −log10 of the molar value.
Reported endpoint: pIC50

> print(dat)
                                   compound  system.tested  reported.measurement
1  CCCCCCCCCCCCCCC[C@@H](O)[C@@H](N)CO (relative stereo) [Sphinganine, erythro-dihydrosphingosine]    HL-60 cells                 ~5.30

###

target: protein kinase C; experiment: Triton X-100 mixed micellar assay for protein kinase C activity; assay type: biochemical, rat; conditions: Triton X-100 mixed micelles, 6 mol % PS, 2 mol % diC18:1; read-out: 50% inhibition of protein kinase C activity
Reported endpoint: IC50 (µM)

> print(dat)
                             smiles.input  units.label  reported.measurement
1  CCCCCCCCCCCCC/C=C/[C@@H](O)[C@@H](N)CO           µM                   100

###

test: HL-60 cell growth and viability; type: cell-based, human; settings: human, hl-60 cells, No PMA, 2.5 μM sphinganine, 24 h; read-out: Percent viability of suspended cells
Reported endpoint: viability at 24 h, 2.5 µM (%)

> print(dat)
                                   molecule          reported.endpoint  reported.measurement
1  CCCCCCCCCCCCCCC[C@@H](O)[C@@H](N)CO (relative stereo) [Sphinganine, erythro-dihydrosphingosine]  viability at 24 h, 2.5 µM                    98

###

assay: HL-60 cell growth and viability; assay type: cell-based, human; details: human, hl-60 cells, 8 nM PMA + 1 μM sphinganine, 24 h; read-out: % Viability
Reported endpoint: viability at 24 h, 1 µM (%)

> print(dat)
                                   compound  reported.measurement
1  CCCCCCCCCCCCCCC[C@@H](O)[C@@H](N)CO (relative stereo) [Sphinganine, erythro-dihydrosphingosine]                    93

###

Parameter: IC50. Scope: all listed entries.
test system: human neutrophils; experiment: Oxygen consumption (oxidative burst) of human neutrophils; format: cell-based; conditions: Homo sapiens, Neutrophil, oxidative burst, PMA activation; read-out: Concentration required for 50% inhibition
Reported endpoint: IC50 (µM)

> print(dat)
                                   molecule      system.tested  qualifier  reported.measurement
1  CCCCCCCCCCCCCCC[C@H](O)[C@@H](N)CO (relative stereo) [threo-Sphinganine]  human neutrophils          =                    24
2  CCCCCCCCCCCCCCCCCCN [Stearylamine, reference compound]  human neutrophils          =                    25
3  CCCCCCCCCCCCCCCC[N+](C)(C)C.[Br-] [CTAB, cetyl trimethylammonium bromide]  human neutrophils          >                   100
4  CCCCCCCCCCCCCCC[C@@H](O)[C@H](CO)NC(C)=O [N-acetylsphinganine, reference compound]  human neutrophils          >                   100
5  CCCCCCCCN [Octylamine, reference compound]  human neutrophils          =                   300
6  CCCCCCCCCCCCC/C=C/[C@@H](O)[C@@H](N)CO [sphingosine]  human neutrophils          =                     9
7  CCCCCCCCCCCCCCCC(=O)O [Palmitic acid, reference compound]  human neutrophils          >                   100
8  CCCCCCCCCCCCCCC[C@@H](O)[C@@H](N)CO (relative stereo) [Sphinganine, erythro-dihydrosphingosine]  human neutrophils          =                     7
